All values here come from patent EP0126287B1.

Could you please report measured LD50 for the items listed next?
# assay.comment: Acute toxicology: indicative LD50 in the rat
# measurement.conditions: in vivo, ip
Kindly answer with a numeric value in mg/kg, unit omitted.

Lookup: Look up and report measured LD50 for this entry: CCOC(C(=O)O)c1ccc(-c2ccc(F)cc2F)cc1 (stereo not shown)
Found: 1800

Lookup: Look up and report measured LD50 for this entry: O=C(O)C(Cl)c1ccc(-c2ccc(F)cc2F)cc1 (stereo not shown)
Found: 850

Lookup: Look up and report measured LD50 for this entry: COC(C(=O)O)c1ccc(-c2ccc(F)cc2F)cc1 (stereo not shown)
Found: 2200

Lookup: Look up and report measured LD50 for this entry: O=C(O)C(O)c1ccc(-c2ccc(F)cc2F)cc1 (stereo not shown)
Found: 850
